System: peripheral blood mononuclear cells (PBMCs)
Assay: IFN-γ ELISPOT assay (ex vivo) with subject PBMCs
Assay type: cell-based, human
Settings: Table 4, HTAPP-DACP related to group therapy
Below, each entry is listed alongside its reported Elispot [nspots/pM].

> print(dat)
                                  substance  recorded.measurement
1  32 (AAKALMSAFYTFRYPLSLRQIKIWFQNRRMKWKK) [compound 32]        75,8 nspots/pM
2  33 (ATYLWWVNNQSLPVSPRAAYLLLTASLLTFWNPRQIKIWFQNRRMKWKK) [compound 33]       271,7 nspots/pM
3  46 (KLVVVGACGVGKSALTIQLIQNHRQIKIWFQNRRMKWKK) [compound 46]        54,2 nspots/pM
4  34 (DSTPPPGTRVLAMAIYKQSQRQIKIWFQNRRMKWKK) [compound 34]        35,8 nspots/pM
5  45 (KIGDFGLATEKSRWSGSHQRQIKIWFQNRRMKWKK) [compound 45]        55,0 nspots/pM

Consider the additional substance presented here.
Q: State, in one line, measured Elispot [nspots/pM] of 43 (IGHKVDAVFMKDGFFYFFHGTRQYRQIKIWFQNRRMKWKK) [compound 43]
Result: 134,2 nspots/pM

---

System: peripheral blood mononuclear cells (PBMCs)
Experiment: IFN-γ ELISPOT assay (ex vivo) with subject PBMCs
Assay type: cell-based, human
Settings: Table 5, HTAPP-DACP related to group therapy
Below, each of the substances is paired with its reported Elispot [nspots/pM] value.

Q: Please indicate Elispot [nspots/pM] recorded for 63 (SQHMTEVVRHCPHHERCSDRQIKIWFQNRRMKWKK) [compound 63]
Result: 88,3 nspots/pM

Q: Indicate its recorded Elispot [nspots/pM]; the substance in question is 61 (QHVKITDFGRAKLLGAEEKRQIKIWFQNRRMKWKK) [compound 61]
Result: 76,7 nspots/pM

---

Readings of Elispot [nspots/pM] for the listed substances
Tested on: peripheral blood mononuclear cells (PBMCs)
Test: IFN-γ ELISPOT assay (ex vivo) with subject PBMCs
Assay type: cell-based, human
Settings: Table 4, HTAPP-DACP related to group therapy
Method: IFNγ ELISpot analysis (for protocol see A. Lalvani, R. Brookes, S. Hambleton, W. J. Britton, A. V. S. Hill, A. J. McMichael, J Exp Med 1997; 186 (6): 859-865) was performed ex vivo (without further in vitro culturing for expansion) using PBMCs depleted of CD4+ and enriched for CD8+ T cells (CD8+ effectors), or depleted of CD8+ and enriched for CD4+ T cells (CD4+ effectors). […]

Reference set (2 entries):
> print(dat)
                                  substance  recorded.measurement
1  41 (HTLYGHTSTVHCMHLHEKRVRQIKIWFQNRRMKWKK) [compound 41]        39,2 nspots/pM
2  40 (HTLYGHTSTVCCMHLHEKRVRQIKIWFQNRRMKWKK) [compound 40]        95,0 nspots/pM

Q: Return value of Elispot [nspots/pM] for input 42 (ICLTSTVQLIMQLMPFGCLLRQIKIWFQNRRMKWKK) [compound 42] , no commentary.
Result: 20,8 nspots/pM

---

Readings of Elispot [nspots/pM] for the listed substances
System: peripheral blood mononuclear cells (PBMCs)
Experiment: IFN-γ ELISPOT assay (ex vivo) with subject PBMCs
Type: cell-based, human
Conditions: Table 5, HTAPP-DACP related to group therapy
Description: IFNγ ELISpot analysis (for protocol see A. Lalvani, R. Brookes, S. Hambleton, W. J. Britton, A. V. S. Hill, A. J. McMichael, J Exp Med 1997; 186 (6): 859-865) was performed ex vivo (without further in vitro culturing for expansion) using PBMCs depleted of CD4+ and enriched for CD8+ T cells (CD8+ effectors), or depleted of CD8+ and enriched for CD4+ T cells (CD4+ effectors). […]

> print(dat)
                                  substance                                    target  recorded.measurement
1  68 (YKLVVVGAGDVGKSALTIQLIQNHFVDRQIKIWFQNRRMKWKK) [compound 68]  peripheral blood mononuclear cells (PBMCs)       154,2 nspots/pM
2  67 (YGIPFIETSTKTRQRVEDARQIKIWFQNRRMKWKK) [compound 67]  peripheral blood mononuclear cells (PBMCs)       248,3 nspots/pM
3  55 (MTEYKLVVVGARGVGKSALRQIKIWFQNRRMKWKK) [compound 55]  peripheral blood mononuclear cells (PBMCs)        44,2 nspots/pM
4  59 (PSDQDLLRCCVLTSGIFETRQIKIWFQNRRMKWKK) [compound 59]  peripheral blood mononuclear cells (PBMCs)       100,8 nspots/pM
5  66 (TIHYNYMCNSSCMGSMNRRPILTIRQIKIWFQNRRMKWKK) [compound 66]  peripheral blood mononuclear cells (PBMCs)        13,3 nspots/pM

Q: Write down Elispot [nspots/pM] measured for item 62 (RVCACPGRDWRTEEENLRKRQIKIWFQNRRMKWKK) [compound 62]
Result: 279,2 nspots/pM

Q: For the substance 56 (MTEYKLVVVGASGVGKSALTIQLIQNHRQIKIWFQNRRMKWKK) [compound 56] , report Elispot [nspots/pM].
Result: 56,7 nspots/pM

Q: For 58 (NSSCMGGMNWRPILTIITLRQIKIWFQNRRMKWKK) [compound 58] , write its Elispot [nspots/pM].
Result: 228,3 nspots/pM

Q: Provide measured Elispot [nspots/pM] value, entry: 65 (TEYKLVVVGAAGVGKSALTIQRQIKIWFQNRRMKWKK) [compound 65]
Result: 22,5 nspots/pM

Q: Annotate the substance 54 (MLPQIPFLLLVSLNLVHGVFRQIKIWFQNRRMKWKK) [compound 54] with its measured Elispot [nspots/pM].
Result: 246,7 nspots/pM

---

System: peripheral blood mononuclear cells (PBMCs)
Test: IFN-γ ELISPOT assay (ex vivo) with subject PBMCs
Assay type: cell-based, human
Details: Table 5, HTAPP-DACP related to group therapy
Measured Elispot [nspots/pM] accompanies every entry in the list below.

Please review the following examples before continuing.
> print(dat)
                                  substance                                    target  recorded.measurement
1  64 (STRDPLSEITKQEKDFLWSHRQIKIWFQNRRMKWKK) [compound 64]  peripheral blood mononuclear cells (PBMCs)        80,8 nspots/pM
2  60 (PSDQDLLRCHVLTSGIFETRQIKIWFQNRRMKWKK) [compound 60]  peripheral blood mononuclear cells (PBMCs)       163,3 nspots/pM
3  53 (MAQYLSTLLLLLATLAVALRQIKIWFQNRRMKWKK) [compound 53]  peripheral blood mononuclear cells (PBMCs)       190,8 nspots/pM

Now for a further substance.
Q: Fill in reported Elispot [nspots/pM] for this entry: 57 (NSSCMGGMNQRPILTIITLRQIKIWFQNRRMKWKK) [compound 57]
Result: 102,5 nspots/pM
